Numbers sourced from ChEMBL document CHEMBL3232950.

# IC50 annotations
biological target: Acetylcholinesterase (Electrophorus electricus)
Sequence (O42275 whole entry): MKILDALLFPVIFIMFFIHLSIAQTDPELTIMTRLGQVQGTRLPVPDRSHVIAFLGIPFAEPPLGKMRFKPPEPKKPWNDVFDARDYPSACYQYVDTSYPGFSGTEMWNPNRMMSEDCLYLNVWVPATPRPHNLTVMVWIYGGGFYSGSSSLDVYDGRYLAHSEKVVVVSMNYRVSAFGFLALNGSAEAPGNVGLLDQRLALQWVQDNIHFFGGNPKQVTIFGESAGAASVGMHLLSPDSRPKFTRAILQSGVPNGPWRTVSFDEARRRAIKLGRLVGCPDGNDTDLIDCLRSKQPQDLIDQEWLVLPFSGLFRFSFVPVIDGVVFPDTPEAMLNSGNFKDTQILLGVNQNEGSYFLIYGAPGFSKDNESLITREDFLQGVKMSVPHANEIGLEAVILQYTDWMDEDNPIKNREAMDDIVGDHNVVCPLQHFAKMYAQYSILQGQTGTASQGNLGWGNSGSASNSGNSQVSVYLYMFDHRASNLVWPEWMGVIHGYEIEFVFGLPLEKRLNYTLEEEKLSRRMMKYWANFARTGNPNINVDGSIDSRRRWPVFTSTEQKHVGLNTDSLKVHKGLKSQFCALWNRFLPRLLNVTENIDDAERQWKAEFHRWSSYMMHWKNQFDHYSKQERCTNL
reported-property: IC50

| compound-structure-string | study-target | reported-property | result |
| --- | --- | --- | --- |
| Cn1c(=O)c(C(=O)NCC2CCN(Cc3ccccc3)CC2)c(N)c2ccccc21 | Acetylcholinesterase (Electrophorus electricus) | IC50 | 380 nM |
| O=C(NCC1CCN(Cc2ccccc2)CC1)c1c(O)c2cc(O)c(O)cc2n(Cc2ccccc2)c1=O | Acetylcholinesterase (Electrophorus electricus) | IC50 | > 10000 nM |
| O=C(NCC1CCN(Cc2ccccc2)CC1)c1c(O)c2ccccc2[nH]c1=O | Acetylcholinesterase (Electrophorus electricus) | IC50 | 1410 nM |
| O=C(NC1CCN(Cc2ccccc2)CC1)c1c(O)c2ccccc2[nH]c1=O | Acetylcholinesterase (Electrophorus electricus) | IC50 | 2270 nM |
| O=C(NC1CCN(Cc2ccccc2)CC1)c1c(-c2ccccc2)c2ccccc2[nH]c1=O | Acetylcholinesterase (Electrophorus electricus) | IC50 | > 10000 nM |
| COc1cc2[nH]c(=O)c(C(=O)NCC3CCN(Cc4ccccc4)CC3)c(O)c2cc1OC | Acetylcholinesterase (Electrophorus electricus) | IC50 | 110 nM |
| Cn1c(=O)c(C(=O)NCC2CCN(Cc3ccccc3)CC2)c(O)c2cc(O)c(O)cc21 | Acetylcholinesterase (Electrophorus electricus) | IC50 | 2020 nM |
| COc1cc2c(O)c(C(=O)NCC3CCN(Cc4ccccc4)CC3)c(=O)n(C)c2cc1OC | Acetylcholinesterase (Electrophorus electricus) | IC50 | 2930 nM |
| Cn1c(=O)c(C(=O)NCC2CCN(Cc3ccccc3)CC2)c(O)c2ccccc21 | Acetylcholinesterase (Electrophorus electricus) | IC50 | 370 nM |
| Cn1c(=O)c(C(=O)NC2CCN(Cc3ccccc3)CC2)c(O)c2ccccc21 | Acetylcholinesterase (Electrophorus electricus) | IC50 | 1520 nM |
| COc1cc2c(O)c(C(=O)NCC3CCN(Cc4ccccc4)CC3)c(=O)n(Cc3ccccc3)c2cc1OC | Acetylcholinesterase (Electrophorus electricus) | IC50 | 270 nM |
| Cc1c(C(=O)NCC2CCN(Cc3ccccc3)CC2)c(=O)[nH]c2ccccc12 | Acetylcholinesterase (Electrophorus electricus) | IC50 | 470 nM |
| O=C(NCC1CCN(Cc2ccccc2)CC1)c1c(O)c2cc(O)c(O)cc2[nH]c1=O | Acetylcholinesterase (Electrophorus electricus) | IC50 | 480 nM |
| Cc1c(C(=O)NC2CCN(Cc3ccccc3)CC2)c(=O)[nH]c2ccccc12 | Acetylcholinesterase (Electrophorus electricus) | IC50 | 2460 nM |
| COc1cc(Cn2c(=O)c(C(=O)NCC3CCN(Cc4ccccc4)CC3)c(O)c3ccccc32)cc(OC)c1O | Acetylcholinesterase (Electrophorus electricus) | IC50 | 560 nM |
| O=C(NC1CCN(Cc2ccccc2)CC1)c1c(O)c2ccccc2n(Cc2ccccc2)c1=O | Acetylcholinesterase (Electrophorus electricus) | IC50 | 390 nM |
| O=C(NCC1CCN(Cc2ccccc2)CC1)c1c(O)c2ccccc2n(Cc2cc(O)c(O)c(O)c2)c1=O | Acetylcholinesterase (Electrophorus electricus) | IC50 | 3890 nM |
| O=C(NCC1CCN(Cc2ccccc2)CC1)c1c(O)c2ccccc2n(Cc2ccccc2)c1=O | Acetylcholinesterase (Electrophorus electricus) | IC50 | 490 nM |
